Recorded values, source patent US20070286861A1.

Biological target: T1, human Oncostatin M (hOSM) (human)
T1 chain: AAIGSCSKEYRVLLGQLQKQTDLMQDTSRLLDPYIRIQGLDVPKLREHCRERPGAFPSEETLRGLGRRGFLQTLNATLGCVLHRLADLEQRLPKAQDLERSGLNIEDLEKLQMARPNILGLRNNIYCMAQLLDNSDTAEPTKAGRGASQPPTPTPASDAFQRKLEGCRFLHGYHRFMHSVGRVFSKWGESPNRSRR
quantity: IL-6 release from KB cells (KB cell assay), IC50 (µg/mL)
Numbers only, in µg/mL.

Using the record for 10D3 murine antibody (antibody, V domains shown) VH: EVQLQQSGPELVKPGASVKISCKASGYIFTDYNMDWVKQSHGKKLEWIGDINPNNGGTIDNQKFKDKATLTVDKSSSTAYMELRSLTSEDTAVYYCARGIYYYGSHYFDYWGQGTTLTVSS VL: QIVLTQSPAIMSASPGEKVTMTCSATSSVSVMHWFQKKSGTSPKRWIYDTSKLASGVPTRFSGSGSGTSYSLTISSMEAEDTATYYCQQWSSNPLTFGSGTKLELK , report its IL-6 release from KB cells (KB cell assay), IC50.
0.114
